Taken from patent US20200392198A1.

# assay-system: T1, human GIP receptor (human, UniProt P48546 22-466)
# T1 sequence (looked up): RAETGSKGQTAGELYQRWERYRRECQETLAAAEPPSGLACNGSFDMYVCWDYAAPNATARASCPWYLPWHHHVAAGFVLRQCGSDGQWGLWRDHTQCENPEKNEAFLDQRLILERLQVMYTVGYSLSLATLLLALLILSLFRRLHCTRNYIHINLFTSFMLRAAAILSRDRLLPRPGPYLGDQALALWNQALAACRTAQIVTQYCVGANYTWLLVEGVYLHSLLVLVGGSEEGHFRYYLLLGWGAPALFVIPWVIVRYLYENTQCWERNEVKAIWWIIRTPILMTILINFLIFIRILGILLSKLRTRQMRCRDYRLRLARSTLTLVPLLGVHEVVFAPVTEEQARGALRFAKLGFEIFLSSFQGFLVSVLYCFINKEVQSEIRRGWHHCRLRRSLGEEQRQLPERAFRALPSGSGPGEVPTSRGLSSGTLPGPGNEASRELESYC
# run-description: cell-based or functional assay
Ends that are not written are not given here. * marks the point of attachment. Palmitoyl = CCCCCCCCCCCCCCCC(=O)*; Lauroyl = CCCCCCCCCCCC(=O)*
Below: a set of entries, each annotated with reported logEC50 (cAMP).
No unit in the answer, only the number.

Observe how each entry below is paired with its result.
1. HADGTFISDYSTILDNLAAKDFINWLIQTKITK [GIP-GLP-2 co-agonist 28]	-9.7
2. HADGTFSSDYSTILDNLAAK(Palmitoyl)DFINWLIQTKITD [GIP-GLP-2 co-agonist 21]	-7.47
3. HADGTFISDYSTILDNLAARDFINWLIQTKGK(Lauroyl)K [GIP-GLP-2 co-agonist 35]	-9.32

Give a short answer stating reported logEC50 (cAMP) for HADGTFISDYSTILDNLKARDFINWLIQTKITK [GIP-GLP-2 co-agonist 27] .
-9.26
